meta.source: patent US11254686B1

target_or_system: adenosine A1 receptor (Homo sapiens (Human))
Sequence (P30542 whole entry): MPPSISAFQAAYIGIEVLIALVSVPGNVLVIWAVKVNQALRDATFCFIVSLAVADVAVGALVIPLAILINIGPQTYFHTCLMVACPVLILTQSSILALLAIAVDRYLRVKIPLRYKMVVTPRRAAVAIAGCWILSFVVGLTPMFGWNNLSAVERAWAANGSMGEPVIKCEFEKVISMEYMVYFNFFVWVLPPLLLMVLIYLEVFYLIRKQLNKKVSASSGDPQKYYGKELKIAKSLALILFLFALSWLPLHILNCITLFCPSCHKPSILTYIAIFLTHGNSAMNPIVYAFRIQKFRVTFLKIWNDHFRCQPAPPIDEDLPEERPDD
assay_overview: Adenosine receptor activity assay (Table 1), A1 cAMP
Format: biochemical
property_measured: IC50

Request: Requested read-out: IC50. Entry: `COCC1CN(C(=O)c2nc(N[C@@H](C)c3ccccn3)nc3c(C)csc23)C1`
Result: > 0.5 µM

Request: Now the molecule `C[C@H](Nc1nc(C(=O)NCCc2cccc(O)c2)c2sccc2n1)c1cccnc1`
Result: 0.1 to 0.5 µM

Request: Now the molecule `C[C@H](Nc1nc(C(=O)NCCc2cccc(O)c2)c2sccc2n1)c1cncc(F)c1`
Result: 0.05 to 0.1 µM

Request: Now the molecule `COc1ccc(CNC(=O)c2nc(N[C@@H](C)c3ccccn3)nc3cc(C)sc23)cn1`
Result: > 0.5 µM

====

Listed next: entries and their corresponding pIC50.
target_or_system: adenosine A2B receptor (Homo sapiens (Human))
assay_overview: Adenosine receptor activity assay (Table 1), A2B activity
Type: biochemical
measurement_setup: read-out: Ave A2B cAMP IC50
pIC50: −log10 of the molar value.

                                chem_smiles  property_measured    test_value
0  C[C@H](Nc1nc(C(=O)N2CC(O)C2)c2sccc2n1)c1cccnc1              pIC50  7.30 to 8.00

Now for another entry.
Request: Requested read-out: pIC50. Entry: `C[C@H](Nc1nc(C(=O)N2CC(C(N)=O)C2)c2sccc2n1)c1cncc(F)c1`
Result: 7.30 to 8.00

====

target_or_system: adenosine A2B receptor (Homo sapiens (Human), UniProt P29275)
Sequence (P29275 whole entry): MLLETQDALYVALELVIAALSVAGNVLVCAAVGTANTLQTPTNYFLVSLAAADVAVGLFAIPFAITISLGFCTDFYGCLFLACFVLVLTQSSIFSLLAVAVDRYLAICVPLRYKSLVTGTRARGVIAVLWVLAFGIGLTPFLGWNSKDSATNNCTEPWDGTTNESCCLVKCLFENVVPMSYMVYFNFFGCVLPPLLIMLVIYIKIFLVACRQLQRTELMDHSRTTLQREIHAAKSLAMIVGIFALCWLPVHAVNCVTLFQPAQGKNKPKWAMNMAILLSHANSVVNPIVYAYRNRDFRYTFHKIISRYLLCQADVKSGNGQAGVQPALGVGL
assay_overview: Adenosine receptor activity assay (Table 1), A2B activity
Type: biochemical
measurement_setup: A2A activity to A2B activity (A2A/A2B)
property_measured: Ratio
Output: the number by itself.

Before answering, review these 2 worked examples.
                                   compound  property_measured  test_value
0  O=C(NC1CCC1)c1nc(NCc2cc(F)cc(F)c2)nc2ccsc12              Ratio        7.01
1  Cc1cc2nc(N[C@@H](C)c3cncc(F)c3)nc(C(=O)NC[C@H](C)O)c2s1              Ratio      167.29

Request: Requested read-out: Ratio. Entry: `C[C@H](Nc1nc(C(=O)N[C@@H]2CCN(C(=O)OC(C)(C)C)C2)c2sccc2n1)c1ccccn1`
Result: 0.54

Request: Now the compound `C[C@H](Nc1nc(C(=O)N2CC[C@@H](O)C2)c2sccc2n1)c1cccnc1`
Result: 24.95

Request: Now the compound `Cc1cc2nc(N[C@@H](C)c3cccnc3)nc(C(=O)N3CC(O)C3)c2s1`
Result: 39.68

Request: Now the compound `Cc1cc2nc(N[C@@H](C)c3cncc(F)c3)nc(C(=O)NC[C@@H]3CCOC3)c2s1`
Result: 50.96

Request: Now the compound COc1ccc(CNC(=O)c2nc(NC(C)c3ccccn3)nc3ccsc23)cn1 (centres unmarked)
Result: 0.62

Request: Now the compound CC1CCN1C(=O)c1nc(N[C@@H](C)c2ccccn2)nc2ccsc12 (some centres unmarked)
Result: 3.85

====

target_or_system: adenosine A2A receptor (Homo sapiens (Human), UniProt P29274)
Sequence (P29274 whole entry): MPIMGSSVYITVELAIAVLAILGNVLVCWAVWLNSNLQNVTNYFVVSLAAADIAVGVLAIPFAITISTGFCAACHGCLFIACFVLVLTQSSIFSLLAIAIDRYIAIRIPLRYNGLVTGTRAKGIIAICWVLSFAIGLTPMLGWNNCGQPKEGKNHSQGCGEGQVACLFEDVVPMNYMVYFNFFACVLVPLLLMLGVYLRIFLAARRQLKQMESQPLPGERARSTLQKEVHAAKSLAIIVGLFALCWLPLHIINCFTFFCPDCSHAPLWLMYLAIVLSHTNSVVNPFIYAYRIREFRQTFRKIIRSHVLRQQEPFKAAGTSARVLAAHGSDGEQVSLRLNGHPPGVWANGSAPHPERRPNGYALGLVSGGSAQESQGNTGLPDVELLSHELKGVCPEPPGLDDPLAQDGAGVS
assay_overview: Adenosine receptor activity assay (Table 1), A2A activity
Type: biochemical
measurement_setup: read-out: Ave A2A cAMP IC50
Listed next: entries and their corresponding IC50.

>>> df
                                chem_smiles     test_value
0  CCN(CC)C(=O)c1nc(N[C@@H](C)c2cccnc2)nc2ccsc12       > 0.5 µM
1  Cc1cc2nc(N[C@@H](C)c3cncc(F)c3)nc(C(=O)N3CC(CNC(=O)C(C)(C)C)C3)c2s1  0.1 to 0.5 µM
2  Cc1cc2nc(N[C@@H](C)c3cncc(F)c3)nc(C(=O)NCCC3CN(C)C3)c2s1       > 0.5 µM

Request: // map `C[C@@H]1CCN(C(=O)c2nc(N[C@@H](C)c3ccccn3)nc3cc(N)sc23)C1` to recorded IC50 (system: adenosine A2A receptor (Homo sapiens (Human), UniProt P29274))
Result: 0.1 to 0.5 µM

Request: Now the compound `COc1ccc([C@H](C)Nc2nc(C(=O)N3CC(NC(C)=O)C3)c3sc(C)cc3n2)cc1`
Result: 0.05 to 0.1 µM

Request: Now the compound `Cc1csc2c(C(=O)N3CCCC3)nc(N[C@@H](C)c3cncc(F)c3)nc12`
Result: 0.01 to 0.05 µM

Request: Now the compound `COC[C@H](Nc1nc(C(=O)NC[C@H](C)O)c2sccc2n1)c1cccnc1`
Result: > 0.5 µM

Request: Now the compound `COc1ccc(CNc2nc(C(=O)NC3CCC3)c3sccc3n2)cn1`
Result: 0.05 to 0.1 µM

====

Listed next: entries and their corresponding pIC50.
target_or_system: UniProtKB P29275
assay_overview: Adenosine receptor activity assay (Table 1), A2B activity
Format: biochemical
measurement_setup: read-out: Ave A2B cAMP IC50
pIC50: −log10 of the molar value.

Before answering, review these 3 worked examples.
>>> df
                                chem_smiles    test_value
0  Cc1cc2nc(N[C@@H](C)c3cncc(F)c3)nc(C(=O)NCCC3CCNCC3)c2s1  7.30 to 8.00
1  COc1ccc([C@H](C)Nc2nc(C(=O)N3CC(NC(=O)OC(C)C)C3)c3sc(C)cc3n2)cc1  6.30 to 7.00
2  CNC(=O)N1CCN(C(=O)c2nc(N[C@@H](C)c3cncc(F)c3)nc3ccsc23)C1  7.30 to 8.00

Request: Requested read-out: pIC50. Entry: `CC(=O)N[C@@H]1CCN(C(=O)c2nc(N[C@@H](C)c3cccnc3)nc3ccsc23)C1`
Result: < 6.30

====

Listed next: entries and their corresponding IC50.
target_or_system: adenosine A3 receptor (Homo sapiens (Human))
Sequence (P0DMS8 whole entry): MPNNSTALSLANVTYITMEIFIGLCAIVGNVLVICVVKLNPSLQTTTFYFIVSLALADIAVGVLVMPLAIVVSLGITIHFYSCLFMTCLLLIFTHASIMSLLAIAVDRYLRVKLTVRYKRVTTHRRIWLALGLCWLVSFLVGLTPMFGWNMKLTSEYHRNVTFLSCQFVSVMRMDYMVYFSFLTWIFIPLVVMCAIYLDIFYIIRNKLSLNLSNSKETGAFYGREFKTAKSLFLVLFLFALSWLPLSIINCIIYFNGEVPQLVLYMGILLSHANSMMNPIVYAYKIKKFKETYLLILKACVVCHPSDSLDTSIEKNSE
assay_overview: Adenosine receptor activity assay (Table 1), A3 cAMP
Type: cell-based

>>> print(df.to_string())
                                   compound  property_measured  test_value
0  C[C@H](Nc1nc(C(=O)NCCc2ccncc2)c2sccc2n1)c1cncc(F)c1               IC50    > 500 nM

Request: Requested read-out: IC50. Entry: `CNc1cc2nc(N[C@@H](C)c3cncc(F)c3)nc(C(=O)N3CC[C@@H](O)C3)c2s1`
Result: 50 to 100 nM

====

Listed next: entries and their corresponding IC50.
target_or_system: adenosine A2B receptor (Homo sapiens (Human), UniProt P29275)
assay_overview: Adenosine receptor activity assay (Table 1), A2B activity
Type: biochemical
measurement_setup: read-out: Ave A2B cAMP IC50

                                   molecule  property_measured   test_value
0  C[C@H](Nc1nc(C(=O)NCC(C)(C)O)c2sccc2n1)c1cncc(F)c1               IC50      < 10 nM
1  C[C@H](Nc1nc(C(=O)N2CC(NC(=O)C(C)(C)C)C2)c2sccc2n1)c1cncc(F)c1               IC50  10 to 50 nM

Request: Requested read-out: IC50. Entry: `C[C@H](Nc1nc(C(=O)NCCc2ccc(S(C)(=O)=O)cc2)c2sccc2n1)c1cncc(F)c1`
Result: 100 to 500 nM

Request: Now the molecule `CCOc1ccc(CNc2nc(C(=O)N3CCC3)c3sccc3n2)cn1`
Result: 100 to 500 nM

Request: Now the molecule `Cc1cc2nc(N[C@@H](C)c3ccccn3)nc(C(=O)NC[C@@H](C)O)c2s1`
Result: < 10 nM

Request: Now the molecule `CO[C@H](C)CNC(=O)c1nc(N[C@@H](C)c2cccnc2)nc2cc(C)sc12`
Result: 50 to 100 nM

Request: Now the molecule `Cc1cc2nc(N[C@@H](C)c3cccnc3)nc(C(=O)N3CC(CNC(=O)C(C)(C)C)C3)c2s1`
Result: 100 to 500 nM

Request: Now the molecule `C[C@H](Nc1nc(C(=O)N2CC[C@@H](F)C2)c2sccc2n1)c1ccccn1`
Result: < 10 nM

Request: Now the molecule `Cc1cc2nc(N[C@@H](C)c3cccnc3)nc(C(=O)NC[C@@H](C)O)c2s1`
Result: < 10 nM

Request: Now the molecule `C[C@H](Nc1nc(C(=O)N2CCC[C@H]2C)c2sccc2n1)c1cccnc1`
Result: 100 to 500 nM

Request: Now the molecule COCC(Nc1nc(C(=O)N[C@H]2C[C@@H](O)C2)c2sccc2n1)c1cccnc1 (some centres unmarked)
Result: 10 to 50 nM

Request: Now the molecule `C[C@H](Nc1nc(C(=O)NCCc2ccc(O)cc2)c2sccc2n1)c1cncc(F)c1`
Result: < 10 nM

Request: Now the molecule `C[C@H](Nc1nc(C(=O)NCCO)c2sccc2n1)c1cccnc1`
Result: 10 to 50 nM

Request: Now the molecule `C[C@H](Nc1nc(C(=O)N2CCCC2)c2sccc2n1)c1cccc(F)c1`
Result: < 10 nM
